Test system: SF-295 CNS
Test: NCI-60 one-dose screen, 48 h (100 = growth as untreated, 0 = no growth, -100 = all killed)
Details: 10 µM
Protocol: Cells are grown in 96 well plates and exposed to the test compound for 48 hours. Compounds are tested at a single concentration, which is 10^-5 M for most compounds. The reported endpoint is percent growth (GI% or GIPRCNT), where numbers from 0 - 100% represent growth inhibition, and numbers from -100% - 0 represent cell death. For example, a value of 40 represents 60% growth inhibition. A value of 0 means no net growth occurred over the course of the experiment. […]
This is part of a sample that, as a whole, favours compounds with a hit. Of some 83,000 tested, about 20% had one in any assay.
For each entry below, report its growth value.
Answers are plain numbers, in %.

{"compound": "Cc1cc(NC(=O)c2ccc(C)c(Nc3nccc(-c4cccnc4)n3)c2)cc(-n2cnc(C)c2)c1", "value kind": "growth", "test value": -13.4}
{"compound": "Cc1cc(Cl)ccc1Nc1nc(C(F)(F)F)ccc1C(=O)N/N=C/c1c(Cl)cccc1Cl", "value kind": "growth", "test value": -37.7}
{"compound": "Cc1c2cnccc2c(C)c2c1c1cc(O)ccc1n2C(C)C", "value kind": "growth", "test value": 34.5}
{"compound": "CN(C)CCOc1ccc(-c2nc3sccn3c2-c2ccnc(S(C)(=O)=O)n2)cc1", "value kind": "growth", "test value": 103}
{"compound": "COc1cc(NC(=O)Nc2cnc(Nc3ccc(N4CCOCC4)cc3)nc2Oc2cccc(OC)c2)cc(OC)c1", "value kind": "growth", "test value": 34.6}
{"compound": "COc1ccc(/C=C2\\CCCC3=C2NC(N)=NC3c2ccc(OC)cc2)cc1 (stereo not given)", "value kind": "growth", "test value": 104}
{"compound": "CCOC(=O)c1cocc1C(=O)O", "value kind": "growth", "test value": 101}
{"compound": "Cc1ccc(S(=O)(=O)N(C)CCCCCC(=O)O)cc1", "value kind": "growth", "test value": 92.7}

Working through the 2 compounds below one at a time, give growth for each.
1. COc1ccc(/C=C/c2nnc(/C=C/c3ccc(OC)c(OC)c3)o2)cc1OC
2. CC1=CC2C(C(O)CC3(C)C2CC(C)C32OCOC23COCO3)C2(C)C/C(=C/O)C(=O)C=C12 (stereo not given)

Result string:
1: 12.5; 2: 79.5

###

I'd appreciate it if you could supply growth values for the items below.
system: HT29 colon; test: NCI-60 one-dose screen, 48 h (100 = growth as untreated, 0 = no growth, -100 = all killed); settings: 10 µM
Compounds without any hit were thinned out: in the full panel of roughly 83,000, 20% have a hit.
Answers are plain numbers, in %.

Example entries begin here.
{"compound": "N#Cc1c(N)nc(-c2cc(F)cc(C(F)(F)F)c2)nc1-c1ccccc1F", "measurement units": "%", "test value": 39.7}
{"compound": "CC(C)N(CCOc1cccc(-c2nc3sccn3c2-c2ccnc(S(C)(=O)=O)n2)c1)C(C)C", "measurement units": "%", "test value": 54.5}
{"compound": "Clc1nc2ccccc2cc1Cn1nnc(Cc2ccccc2)n1", "measurement units": "%", "test value": 71.5}
{"compound": "CCOC(=O)c1cc(C(=O)c2ccc(OC)c(OC)c2)n2ccncc12", "measurement units": "%", "test value": 84.6}
{"compound": "O=C1Cc2cc(CCN3CCN(c4nsc5ccccc45)CC3)c(Cl)cc2N1", "measurement units": "%", "test value": 90.1}

Value sought for every listed compound: growth.
1. COc1cc2c3c(n([C@H]4CCOC4)c(=O)c2cc1OC)-c1cc2c(cc1C3=O)OCO2
2. O=C(N/N=C/c1c(Cl)cccc1Cl)c1ccccc1Nc1cccc(C(F)(F)F)c1
3. OC(CNc1ccnc2cc(Cl)ccc12)CNC1CCCCC1 (configuration not stated)
4. CN(C)CCCOc1ccc(OCCCN(C)C)c2c1C(=O)c1ccccc1C2=O
5. CCc1ccc(-c2ccc(-n3nc(C)c4c(N)nc(Cc5ccccc5)nc43)cc2)cc1

Result string:
[40.9, 103, 31.3, -20.6, 78.8]

List growth for every entry below, keeping the order given.
1. COc1cc(-c2nn(-c3cccc(NC(=O)NCCNC(=O)c4cccc(C(F)(F)F)c4)c3)cc2-c2ccncc2)ccc1Cl
2. COc1cc2c(Nc3ccc(S(N)(=O)=O)cc3)ncnc2c(OC)c1OC
3. N#CCc1csc(Cc2ccccc2)n1

Result string:
1: 21.1; 2: 105; 3: 98

Need growth for each of these compounds.
1. CN1C(C(=O)Nc2ccccn2)=C(O)c2sc(Cl)cc2S1(=O)=O
2. Nc1cc(-c2ccncc2)c[nH]c1=O
3. Cc1c2c(nn1C(=O)c1nn(-c3ccc(Cl)cc3)cc1O)-c1ccccc1CC2
4. COc1cc2c(Nc3ccc(-c4ccc(N)cc4)cc3)ncnc2c(OC)c1OC

Result string:
103
103
30
46.2

###

Exercise: state measured growth for each of the compounds provided.
Test system: 786-0 renal
Assay: NCI-60 one-dose screen, 48 h (100 = growth as untreated, 0 = no growth, -100 = all killed)
Details: 10 µM
Protocol: Cells are grown in 96 well plates and exposed to the test compound for 48 hours. Compounds are tested at a single concentration, which is 10^-5 M for most compounds. The reported endpoint is percent growth (GI% or GIPRCNT), where numbers from 0 - 100% represent growth inhibition, and numbers from -100% - 0 represent cell death. For example, a value of 40 represents 60% growth inhibition. A value of 0 means no net growth occurred over the course of the experiment. […]
This is part of a sample that, as a whole, favours compounds with a hit. Of some 83,000 tested, about 20% had one in any assay.
Answers are plain numbers, in %.

# annotated cases, reported growth shown
{"compound": "COc1ccc2nc(Cl)c(Cn3nnc(Cc4ccccc4)n3)cc2c1", "measurement units": "%", "test value": 47.5}
{"compound": "CCN(CC)CCN1c2nc3ccccc3cc2Sc2cc3ccccc3nc21", "measurement units": "%", "test value": -40}
{"compound": "C=CCN(CC=C)C(=O)[C@H](CC)[C@@H]1CC[C@@H](C)[C@@H]([C@H](C)[C@@H](O)[C@@H](C)C(=O)[C@H](CC)C2O[C@]3(C=CC(=O)[C@]4(CC[C@@](C)([C@H]5CC[C@](O)(CC)[C@H](C)O5)O4)O3)[C@H](C)C[C@@H]2C)O1 (stereo partly drawn)", "measurement units": "%", "test value": 44.3}

// for each compound below, give its growth
1. O=C(NCCCNS(=O)(=O)c1ccc(Cl)cc1)Nc1ccc(-n2cc(-c3ccncc3)c(-c3ccc(Cl)c(O)c3)n2)cc1
2. c1cncc(-c2csc(-c3c[nH]c4ccccc34)n2)c1
3. COc1ccc(N(C)c2ncnc3occ(C)c23)cc1

Result string:
[1.59, 103, 17.8]

###

tested on: TK-10 renal; assay: NCI-60 one-dose screen, 48 h; settings: 10 µM
This is part of a sample that, as a whole, favours compounds with a hit. Of some 83,000 tested, about 20% had one in any assay. Calls of active or inactive are those of the source. Rule for the calls: active = growth percent below 10; inactive = the rest.
Could you please pick one outcome from this set? Y (active), N (inactive)

{"compound": "O=C1c2ccccc2C(=O)c2c1ccc1c(=O)n(-c3ccccc3C(F)(F)F)nnc21", "class label": "N"}
{"compound": "CN(C)CCOc1cccc(NC2=C(Cl)C(=O)C(Nc3cccc(OCCN(C)C)c3)=C(Cl)C2=O)c1", "class label": "Y"}
{"compound": "COc1ccc(/C=C/C(=O)C(=O)/C=C/c2ccc(OC)c(OC)c2)cc1OC", "class label": "N"}

Query string: I'd appreciate the recorded outcome for `O=C(Nc1ccc(OCc2nnc(-c3ccc(Cl)cc3)o2)c(F)c1)Nc1ccc(Cl)c(C(F)(F)F)c1` from this test.
Result string: N

Query string: Recorded test call requested for `Cc1c[nH]c(=O)n(Cc2nnc(CCC(=O)c3nc4ccccc4[nH]3)o2)c1=O`
Result string: N

Query string: State the result this test recorded for `COc1cc(-c2nn(-c3ccc(NC(=O)NCCNS(=O)(=O)c4ccc(F)cc4)cc3)cc2-c2ccncc2)ccc1Cl` .
Result string: N

Query string: For this compound, state the assay outcome: NC(CSC(c1ccccc1)(c1ccccc1)c1cccc2ccccc12)C(=O)O (configuration not stated)
Result string: N

Query string: Call for entry `CN(C)CCCOc1ccc(OCCCN(C)C)c2c1C(=O)c1ccccc1C2=O` :
Result string: Y

Query string: Entry `O=C(CCCNC(=O)c1nc(-c2ccccc2)n(-c2ccccc2)n1)NO` : call = ?
Result string: N

Query string: Recorded call for `Oc1cccc(-c2nc3sccn3c2-c2ccncn2)c1` ?
Result string: N

Query string: For `O=C1c2ccccc2C(=O)c2c1ccc(C(Br)Br)c2[N+](=O)[O-]` , which call appears in the assay record?
Result string: N

Query string: # lookup: test call for `O=C1NC(=O)c2c(CCCSc3nc4ccccc4c(=O)n3CCc3ccccc3)cccc21`
Result string: N

Query string: // outcome(item) with item = `O=C1/C(=C/c2ccc([N+](=O)[O-])s2)Oc2cc(Cl)ccc21`
Result string: Y

Query string: Write down the call the test reported for this compound. Item: `CC[C@H]1OC(=O)[C@H](C)[C@@H](O[C@H]2C[C@@](C)(OC)[C@@H](O)[C@H](C)O2)[C@H](C)[C@@H](O[C@@H]2O[C@H](C)C[C@H](N(C)C)[C@H]2O)[C@](C)(OC)C/C(C)=C2/O[C@@]1(C)C=C2C`
Result string: N

Query string: How did this test come out for N#CC1=CC2CN(Cc3ccccc3)C1C1C(=O)N(c3ccccc3)C(=O)C21 (configuration not stated) ?
Result string: N

Query string: Recorded test call requested for `C[C@@H](O)[C@H]1C(=O)N2C(C(=O)O)=C(SCCN=CN)C[C@H]12`
Result string: Y

Query string: Assay result, entry `Fc1ccc2[nH]cc(-c3nc(-c4ccsc4)cs3)c2c1` — outcome?
Result string: N

Query string: Please state the recorded outcome for this compound: `COc1ccccc1-n1c(-c2csc(NC(C)=O)n2)n[nH]c1=S`
Result string: N

Query string: Could you check what this test reported for CCC1NC(=O)c2cc(S(N)(=O)=O)c(Cl)cc2N1 (configuration not stated) ?
Result string: N

Query string: Could you please tell me the result logged for `Clc1ccc(Cc2ccncc2)cc1` in this assay?
Result string: N

Query string: Could you please tell me the result logged for `COc1ccc(-c2cc(-c3cc(OC)ccc3OC)nc(N)c2C#N)cc1` in this assay?
Result string: N
